- protocol text: Blood exposure in the P. falciparum infected SCID mouse model
- Assay type: in vivo, NODscidIL2Rγ^null mice engrafted with human RBCs
- test parameters: female, NODscidIL2Rγnull engrafted with human RBCs, mouse, whole blood, po, 200 mg/kg, 1 x 200 mg/kg p.o., blood, read-out: AUC0-120h (mean)
quantity name: AUC(0-t) (µg·h/mL)

structure_as_smiles=CC(C)c1nn([C@@H]2O[C@H](COS(N)(=O)=O)[C@@H](O)[C@H]2O)c2ncnc(N)c12 quantity_name=AUC(0-t) unit_symbol=µg·h/mL reported_value=215

---

- protocol text: Rat pharmacokinetics
- Type: in vivo, Sprague-Dawley rats
- test parameters: male, Sprague-Dawley, whole blood, PO 25 mg/kg, blood, terminal half-life, T1/2∞, read-out: T1/2z (converted)
quantity name: half-life (h)

structure_as_smiles=CC(C)c1nn([C@@H]2O[C@H](COS(N)(=O)=O)[C@@H](O)[C@H]2O)c2ncnc(N)c12 reported_value=30.5

---

- protocol text: Rat pharmacokinetics
- Assay type: in vivo, Sprague-Dawley rats
- test parameters: male, Sprague-Dawley, whole blood, PO 25 mg/kg, blood, read-out: %F
quantity name: bioavailability (%)

structure_as_smiles=CC(C)c1nn([C@@H]2O[C@H](COS(N)(=O)=O)[C@@H](O)[C@H]2O)c2ncnc(N)c12 quantity_name=bioavailability reported_value=8.72

---

- Tested on: Primary hepatocytes
- protocol text: Toxicity to primary hepatocyte host cells in the liver stage assay
- Format: cell-based, human
- test parameters: Homo sapiens, Hepatocyte, host cells of the NF175 experiment
- Experimental: Activity against liver stage parasites was performed using a modification of published procedures. […] Cells were imaged on a PicoExpress high content imager, and images were analysed automatically using CellReporterXpress software. Data were analysed by logistic regression using a four-parameter (Hill equation) model and a least-squares method to find the best fit.
Measured IC50, listed per entry for reference.
quantity name: IC50

compound="Nc1ncnc2c1c(OC(F)F)nn2[C@@H]1O[C@H](COS(N)(=O)=O)[C@@H](O)[C@H]1O [ML901]" reported_value="> 10 µM"
compound="CC(C)c1nn([C@@H]2O[C@H](COS(N)(=O)=O)[C@@H](O)[C@H]2O)c2ncnc(N)c12 [ML471]" reported_value="> 10 µM"
compound="O=C1C(O)=C([C@H]2CC[C@H](c3ccc(Cl)cc3)CC2)C(=O)c2ccccc21 [Atovaquone]" reported_value="> 1 µM"

---

- protocol text: Rat pharmacokinetics
- Assay type: in vivo, Sprague-Dawley rats
- test parameters: male, Sprague-Dawley, whole blood, PO 1 mg/kg, blood
quantity name: Cmax

structure_as_smiles=CC(C)c1nn([C@@H]2O[C@H](COS(N)(=O)=O)[C@@H](O)[C@H]2O)c2ncnc(N)c12 quantity_name=Cmax reported_value="39.3 nM"

---

- protocol text: Rat pharmacokinetics
- Type: in vivo, Sprague-Dawley rats
- test parameters: male, Sprague-Dawley, IV 1 mg/kg, plasma
quantity name: Tmax (min)

structure_as_smiles=CC(C)c1nn([C@@H]2O[C@H](COS(N)(=O)=O)[C@@H](O)[C@H]2O)c2ncnc(N)c12 reported_value=4.8

---

- protocol text: Rat pharmacokinetics
- Assay type: in vivo, Sprague-Dawley rats
- test parameters: male, Sprague-Dawley, whole blood and plasma, intravenous, 1 mg/kg, time 0.25 h
quantity name: blood plasma ratio at 0.25 h

structure_as_smiles=CC(C)c1nn([C@@H]2O[C@H](COS(N)(=O)=O)[C@@H](O)[C@H]2O)c2ncnc(N)c12 quantity_name="blood plasma ratio at 0.25 h" reported_value=1.5
